experimentalSystem: Adrenergic receptor alpha-2 (Rattus norvegicus) (UniProt P22086+P19328+P22909)
assayNotes: In vivo effective dose required to inhibit xylazine-induced loss of righting in rats upon subcutaneous administration
Type: functional, organism-based
// boundary case: ED50 equal to 5 mg/kg maps to not fulfilled; strictly smaller maps to fulfilled

1) COc1cc2c(cc1OC)C1=NO[C@@H](CN3CCN(C/C=C(\C)c4ccccc4)CC3)[C@@H]1CO2 (stereo in doubt; (-)15g)    not fulfilled
2) C(=C\c1ccccc1)/CN1CCN(CC2ON=C3c4ccccc4OCC32)CC1 (stereo unspecified)    fulfilled
3) COc1cc2c(cc1OC)C1=NOC(CN3CCN(Cc4ccccc4)CC3)C1CO2 (stereo unspecified)    not fulfilled
4) COc1cc2c(cc1OC)C1=NOC(CN3CCN(CCCc4ccccc4)CC3)C1CO2 (stereo unspecified)    fulfilled
5) COc1cc2c(cc1OC)C1=NO[C@@H](CN3CCN(Cc4ccc5ccccc5c4)CC3)[C@@H]1CO2 (stereo in doubt; (-)15h)    not fulfilled
6) COc1cc2c(cc1OC)C1=NOC(CN3CCN(C/C(C)=C/c4ccccc4)CC3)C1CO2 (stereo unspecified)    fulfilled
7) COc1cc2c(cc1OC)C1=NOC(CN3CCN(C/C=C/c4ccccc4)CC3)C1CO2 (stereo unspecified)    fulfilled
8) COc1cc2c(cc1OC)C1=NO[C@@H](CN3CCN(C/C=C(\C)c4ccccc4)CC3)[C@@H]1CO2 (stereo in doubt; (+)15g)    fulfilled
9) COc1cc2c(cc1OC)C1=NO[C@@H](CN3CCN(C/C(C)=C/c4ccccc4)CC3)[C@@H]1CO2 (stereo in doubt; (-)15f)    not fulfilled
10) COc1cc2c(cc1OC)C1=NOC(CN3CCN(CCc4ccccc4)CC3)C1CO2 (stereo unspecified)    not fulfilled
11) COc1cc2c(cc1OC)C1=NOC(CN3CCN(CC4=Cc5ccccc5C4)CC3)C1CO2 (stereo unspecified)    not fulfilled
12) COc1ccc2c(c1)C1=NOC(CN3CCN(C/C=C/c4ccccc4)CC3)C1CO2 (stereo unspecified)    fulfilled
13) COc1cc2c(cc1OC)C1=NO[C@@H](CN3CCN(Cc4ccc5ccccc5c4)CC3)[C@@H]1CO2 (stereo in doubt; (+)15h)    not fulfilled
